Source of measurements: the Deep4Chem optical property database

Please provide measured emission maximum for the entries that follow.
# assay-notes: solvent given as SMILES
# measurement-context: in CCO
Your answer is read as nm, so omit the unit and give the number.

Item COc1cc(OC)c2ccc(=O)oc2c1 has what recorded emission maximum?
425

Item O=Cc1cc(C=O)c2ccc3c(N4CCCCC4)cc(N4CCCCC4)c4ccc1c2c43 has what recorded emission maximum?
609

Item O=C([O-])c1ccc(C2=c3cc4c5c(c3Oc3c2cc2c6c3CCCN6CCC2)CCC[N+]=5CCC4)c(C(=O)[O-])c1 has what recorded emission maximum?
601

Item O=Cc1cc(N2CCCCC2)c2ccc3c(N4CCCCC4)cc(N4CCCCC4)c4ccc1c2c43 has what recorded emission maximum?
635

Item CC/[NH+]=c1\cc2oc3cc(NCCC(=O)NCC(=O)OC)c4ccccc4c3nc-2cc1C has what recorded emission maximum?
644

Item CCN(CC)c1ccc2cc(-c3nc4ccccc4s3)c(=O)oc2c1 has what recorded emission maximum?
505

Item COc1ccc2c(=O)c3c([nH]c2c1)-c1cc(Cl)ccc1NC3(C)C has what recorded emission maximum?
525

Item CCN(CC)c1ccc(-c2cc3c(s2)c(C(=O)OC)cc(=O)n3C)cc1 has what recorded emission maximum?
516

Item N#CC(C#N)=Cc1ccc(-c2cccc(-c3nc4ccccc4s3)c2O)o1 has what recorded emission maximum?
631

Item N#CC(C#N)=Cc1ccc(-c2ccc(O)c(-c3nc4ccccc4s3)c2)o1 has what recorded emission maximum?
632

Item Cc1n[nH]c2c1C(c1ccc([N+](=O)[O-])cc1)C(C#N)=C(N)O2 (centres undefined) has what recorded emission maximum?
414

Item CCOC(=O)c1ccccc1-c1c2ccc(=O)cc-2oc2cc(OC(=O)[C@H](CO[Si](C)(C)C(C)(C)C)NC(=O)OC(C)(C)C)ccc12 has what recorded emission maximum?
525

Item Cc1c2ccncc2c(C)c2c1[nH]c1ccccc12 has what recorded emission maximum?
429

Item C1=C(c2ccc(-c3cccs3)s2)CCC1 has what recorded emission maximum?
408

Item CCCCCCCN1C(=CC2=C([O-])C(=CC3=[N+](CCCCCCC)c4ccccc4C3(C)C)C2=C(C#N)C#N)Sc2ccccc21 has what recorded emission maximum?
699

Item O=c1cc(C(F)(F)F)c2cc3c4c(c2o1)CCCN4CCC3 has what recorded emission maximum?
531

Item CC(NC(=O)OC(C)(C)C)C(=O)OCc1ccc2c3cccc4cccc(c5cccc1c52)c43 (centres undefined) has what recorded emission maximum?
443

Item O=Cc1c(O)c(-c2nc3ccccc3s2)cc2ccccc12 has what recorded emission maximum?
503

Item Cc1c(COC(=O)c2ccc(I)cc2)n2c(OCC(=O)c3ccc(I)cc3)c(C)c(=O)n2c1=O has what recorded emission maximum?
458

Item CC1=CC(C)=[N+]2C1=C(c1c3ccccc3c(-c3ccccc3)c3ccccc13)c1c(C)cc(C)n1[B-]2(F)F has what recorded emission maximum?
512

Item CC(C)(C)c1ccc2c(c1)c1cc(C(C)(C)C)ccc1n2-c1cc(-n2c3ccc(C(C)(C)C)cc3c3cc(C(C)(C)C)ccc32)c(-n2c3ccc(C(C)(C)C)cc3c3cc(C(C)(C)C)ccc32)c(C#N)c1-n1c2ccc(C(C)(C)C)cc2c2cc(C(C)(C)C)ccc21 has what recorded emission maximum?
484.15

Item c1cnc(-c2c3ccccc3c(-c3ncccn3)c3ccccc23)nc1 has what recorded emission maximum?
440

Item COc1ccc2cc3c(C)cc(=O)oc3cc2c1 has what recorded emission maximum?
464

Item c1ccc(-c2nnc(-c3ccc(-n4c5ccccc5c5ccccc54)cc3)o2)cc1 has what recorded emission maximum?
440

Item Cc1ccc(C2=C3C=C(I)C=[N+]3[B-](F)(F)n3cccc32)cc1 has what recorded emission maximum?
547

Item CCN(CC)c1ccc2cc3c([o+]c2c1)/C(=C/Nc1ccccc1)CCC3 has what recorded emission maximum?
647

Item COc1ccc2c(c1)CCc1c-2nc(N)c(C#N)c1-c1ccc(Br)cc1 has what recorded emission maximum?
419

Item CCCCCCc1ccsc1-c1ccc(-c2sc(C(=O)O)cc2CCCCCC)s1 has what recorded emission maximum?
451

Item N#C/C(=C\c1ccc(C#N)cc1)c1nc(-c2ccccc2)cs1 has what recorded emission maximum?
500

Item CN(C)c1ccc(/C=C/c2cc[n+](Cc3cc(C[n+]4ccc(/C=C/c5ccc(N(C)C)cc5)cc4)cc(C[n+]4ccc(/C=C/c5ccc(N(C)C)cc5)cc4)c3)cc2)cc1 has what recorded emission maximum?
613

Item CNc1ccc2c(c1)-c1ccccc1C2=O has what recorded emission maximum?
583

Item CC1(C)CC(/C=C/c2ccc(-n3cncn3)cc2)=CC(=C(C#N)C#N)C1 has what recorded emission maximum?
518

Item CC(C)[Si]1(C(C)C)c2cc(N(C)C)ccc2-c2ccc(C(F)(F)F)cc21 has what recorded emission maximum?
422

Item O=Cc1cc(O)ccc1O has what recorded emission maximum?
487

Item c1ccc2c(c1)[nH]c1ccccc12 has what recorded emission maximum?
339

Item COc1ccc2c(c1)-c1cc(OC)ccc1C2=O has what recorded emission maximum?
552

Item CC1(C)CC(=O)c2c(F)c(F)c(F)c(F)c2N1 has what recorded emission maximum?
479

Item CC1(C)C(/C=C/c2cc3ccc(O)cc3oc2=O)=[N+](CCCS(=O)(=O)[O-])c2ccccc21 has what recorded emission maximum?
642

Item O=C(O)COc1cccc(OCC(=O)O)c1-c1c2ccc(=[N+]3CCCCC3)cc-2oc2cc(N3CCCCC3)ccc12 has what recorded emission maximum?
580

----------
# assay-notes: solvent given as SMILES
# measurement-context: in Cc1ccccc1
Use 500 nm as the dividing line for emission maximum, with the line itself on the yes side and lower values as no.

Quick check, emission maximum >= 500 nm? Cn1c(=O)c(/N=N/c2ccc(Nc3ccc([N+](=O)[O-])cc3S(=O)(=O)O)cc2)c(O)c2ccccc21
yes

Quick check, emission maximum >= 500 nm? C(=C\c1ccc(/C=C/c2ccc(N(c3ccccc3)c3ccccc3)cc2)c2nsnc12)/c1ccc(N(c2ccccc2)c2ccccc2)cc1
yes

Quick check, emission maximum >= 500 nm? Fc1cccc(F)c1[B-]1(c2c(F)cccc2F)Oc2c(ccc3c4c(ccc23)C=[N+](c2ccccc2)[B-](c2c(F)cccc2F)(c2c(F)cccc2F)O4)C=[N+]1c1ccccc1
yes

Quick check, emission maximum >= 500 nm? O=Cc1cc(N2CCCCC2)c2ccc3c(N4CCCCC4)cc(N4CCCCC4)c4ccc1c2c43
yes

Quick check, emission maximum >= 500 nm? CCCCCCc1ccc(-n2c3[n+](c4c5ccccc5c5ccccc5c42)[B-](C)(C)c2ccc4ccccc4c2-3)cc1
no

Quick check, emission maximum >= 500 nm? COc1ccc(-c2ccc3c(c2)c2cc(-c4ccc(OC)cc4)ccc2n3-c2ccc(C(=O)c3ccc4sc5ccccc5c4c3)cn2)cc1
no

Quick check, emission maximum >= 500 nm? CC1(C)c2ccccc2N(c2ccc3c(c2)c2ccccc2c2nc4ccccc4nc32)c2ccccc21
yes

Quick check, emission maximum >= 500 nm? Oc1ccccc1-c1nc2c3ccccc3c3ccccc3c2n1-c1ccccc1
no

----------
Please provide measured emission maximum for the entries that follow.
# assay-notes: solvent given as SMILES
# measurement-context: in CCOCC
Your answer is read as nm, so omit the unit and give the number.

Item CC1=CC(C)=[N+]2C1=C(c1ccccc1)c1c(C)cc(/C=C/c3ccc(N(C)C)cc3)n1[B-]2(F)F has what recorded emission maximum?
638

Item CC(C)[Si]1(C(C)C)c2cc(C#N)ccc2-c2ccc(N(c3ccccc3)c3ccccc3)cc21 has what recorded emission maximum?
436

Item COc1cc(OC)c2ccc(=O)oc2c1 has what recorded emission maximum?
390

Item Cc1cc(N(C)C)cc(C)c1/C=C/C=C/c1ccc(C#N)cc1 has what recorded emission maximum?
527

Item c1ccc2nc3cccc(-c4ccc(-n5c6ccccc6c6ccccc65)cc4)c3cc2c1 has what recorded emission maximum?
443

Item COc1ccc(/C=C/C2=CC(/C=C/c3ccc(OC)c4ccccc34)=[O+][B-](F)(F)O2)c2ccccc12 has what recorded emission maximum?
587

Item c1ccc(C2CCN3COc4c5ccccc5c5c6c7c(c2c3c46)C(c2ccccc2)CCN7CO5)cc1 (stereo not given) has what recorded emission maximum?
562

Item CC(C)[Si]1(C(C)C)c2cc(C=O)ccc2-c2ccc(N(C)C)cc21 has what recorded emission maximum?
449

Item Cc1c2ccncc2c(C)c2c1[nH]c1ccccc12 has what recorded emission maximum?
405

Item Cc1cccc(NC(=O)c2ccc(N(C)C)cc2)c1 has what recorded emission maximum?
498

----------
# assay-notes: solvent given as SMILES
# measurement-context: in ClCCl
Please provide measured emission maximum for the entries that follow.

Item Fc1ccc(C#Cc2c(C#Cc3ccc(F)cc3)c(C#Cc3ccc(F)cc3)c(C#Cc3ccc(F)cc3)c(C#Cc3ccc(F)cc3)c2C#Cc2ccc(F)cc2)cc1 has what recorded emission maximum?
450 nm

Item COc1cccc(C2=c3c(c4ccc(C(C)(C)C)cc4c4cc(C(C)(C)C)ccc34)=[N+]3C2=C(c2ccccc2)c2c(-c4cccc(OC)c4)c4c5ccc(C(C)(C)C)cc5c5cc(C(C)(C)C)ccc5c4n2[B-]3(F)F)c1 has what recorded emission maximum?
737 nm

Item CC(C)c1cccc(C(C)C)c1N1C(=O)c2ccc3c(-c4ccccc4)c4c5ccc6c7c(ccc(c(-c8ccccc8)c4c4ccc(c2c34)C1=O)c75)C(=O)N(c1c(C(C)C)cccc1C(C)C)C6=O has what recorded emission maximum?
702 nm
